Data provenance: the supplement of paper PMC12645437

# target_or_test_system: T1, CRBN, Q96SW2;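 also: pooled lentiviral library of zinc finger degron-EGFP fusions in mCherry-positive Jurkat cells, FACS-sorted after compound exposure, with degron abundance counted by next-generation sequencing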
# T1 chain: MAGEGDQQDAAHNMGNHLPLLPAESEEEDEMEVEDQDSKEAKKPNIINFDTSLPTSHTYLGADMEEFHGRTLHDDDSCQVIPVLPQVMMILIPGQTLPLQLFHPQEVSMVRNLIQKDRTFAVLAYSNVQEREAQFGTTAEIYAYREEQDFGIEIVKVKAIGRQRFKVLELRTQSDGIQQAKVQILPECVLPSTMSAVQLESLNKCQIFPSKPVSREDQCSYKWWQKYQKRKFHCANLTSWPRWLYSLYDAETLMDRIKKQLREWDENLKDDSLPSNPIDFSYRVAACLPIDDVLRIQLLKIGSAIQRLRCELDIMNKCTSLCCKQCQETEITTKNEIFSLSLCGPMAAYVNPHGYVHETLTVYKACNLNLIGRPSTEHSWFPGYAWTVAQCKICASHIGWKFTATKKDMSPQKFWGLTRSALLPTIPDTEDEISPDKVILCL
# procedure_summary: log2 fold change of degron read counts, EGFP-low vs EGFP+ sorted cells (limma voom), compound-induced degradation; higher = more compound-induced degradation of the degron-EGFP fusion; degrons are variants of IKZF1/3 zinc finger 2; compound dose not given here
# assay_context: Jurkat; 18 h; compound: compound 19 (5-tert-butyl-thalidomide)
The full ranking holds about 8,300 sequences; the median of “log2 fold change of degron read counts, EGFP-low vs EGFP+ sorted cells (limma voom), compound-induced degradation” is about -1.1, and the highest 2% start at about 3.2. The sample as a whole holds a higher share of the highest values than the screen did.
# key: entry, value: log2 fold change of degron read counts

Use the examples below as a reference point.
FQCDICGAFFTQKGNLLRHIKL [46F_47Q_49D_50I_52G_53A_54F_55F_67L_, Q9UKT9]; -2.31
FACPVCGAPFTQKGNLLRHIKL [46F_47A_49P_50V_52G_53A_54P_55F_67L_, Q9UKT9]; 3.58
FDCPVCGAPFTQKGNLLRHIKL [46F_47D_49P_50V_52G_53A_54P_55F_67L_, Q9UKT9]; 2.39
FCCPVCGAPFTQKGNLLRHIKL [46F_47C_49P_50V_52G_53A_54P_55F_67L_, Q9UKT9]; 3.13
FICDVCGAPFTQKGNLLRHIKL [46F_47I_49D_50V_52G_53A_54P_55F_67L_, Q9UKT9]; -0.148
FGCPVCGAPFTQKGNLLRHIKL [46F_47G_49P_50V_52G_53A_54P_55F_67L_, Q9UKT9]; 3.34

Now, please, on to the next sequence.
Request: Give the measured log2 fold change of degron read counts of FKCPVCGAPFTQKGNLLRHIKL [46F_47K_49P_50V_52G_53A_54P_55F_67L_, Q9UKT9] .
Response: 2.06
